Test system: MS2 coat protein
method_description: apparent KD of MS2 coat protein; higher = weaker reporter binding
condition_set: Eterna round: R107; input ligand: theophylline 20 uM
measurement_label: apparent KD of MS2 coat protein (nM)
Write the number in nM without appending the unit.

Recorded apparent KD of MS2 coat protein for GGGUCAGGCGCGGCCGCCACUGCGGUGAUGUGACAUGAGGAUCACCCAUGUUGUCAUGUGGCACAUAGGACCGGGUGCCUGGCCC [#1 Exclusion - Tryptophan B Attempt #6 (HarryS)] , please?
50.2

// query: GGGUGUGAUCCGGAUACCAGUGAACAUGAGGAUCACCCAUGUGACCUGAGAUCGGCUCUUCACCCUUGGCAGCCGCGGUCGCAGG [Same State Theophylline B GF14]
18.6

Field entry: GGCACAUAGUCGGCCGCCACUAGGGUGUAGUGGAAUAACAUGAGGAUCACCCAUGUAUUUGGGACUAGGACCGGGACUAUGUGCC [Leopard]
40.4

----------
System: MS2 coat protein
method_description: apparent KD of MS2 coat protein; designed switch direction (-1 OFF switch, 1 ON switch): 1; higher = weaker reporter binding
condition_set: Eterna round: R98; input ligand: none
measurement_label: apparent KD of MS2 coat protein
Note: a bare number is incomplete; add the unit.

For UUUAUUUAUUGAGGAUAUGCACAGGAUCACCGUGUAGAAGGCAUCAGGGAGAAGGUGCAGAGGAUCACCCUGUAAGGAUAUCAC [pwkr2 ssNG1 DX.2] , what is its reported apparent KD of MS2 coat protein?
381 nM

Also AGCGGUAGGACAGGAUAUGGUGACUUCAAGCGGCCAGAAGGGUCCCGACAUGAGGAUCACCCAUGUCUUCCAGGCAGGAAGCGC [Bequques] ?
239 nM

Continue with GUAACAUGAGGAUCACCCAUGUCGUGCUAGAUGAGUUCUGGUGAGGAUAUACAUGGUAAAUAACUGUAGAAGGCACUGGGUACA [SameState #67 NG3]
133 nM

// next record UAGUGUUCUCGAGGAUAUGGGUUCCGUUUUAGCCCAGAAGGCGAACAUGAGGAUCACCCAUGUAUGAAUACACAGCAGAAUUGU [Teedri]
1750 nM

Same thing, different sequence: UAUUUAUGGUGAGGAUAUGCAAAGGAUCACCUUGUAGAAGGCAUCAGGUAGAAGGUGCAGAGGAUCACCCUGUAAGGAUAUAUC [pwkr2 ssNG1 DX.22]
232 nM

Proceed to UAUAUAUAUUGAGGAUAUGCACAGGAUCACCGUGUAGAAGGCAUCAGGGAGAAGGUGCAGAGGAUCACCCUGUAAGGAUAUCAU [pwkr2 ssNG1 DX.1]
205 nM

----------
System: MS2 coat protein
method_description: apparent KD of MS2 coat protein; designed switch direction (-1 OFF switch, 1 ON switch): -1; higher = weaker reporter binding
condition_set: Eterna round: R95; input ligand: microRNA oligo, concentration not stated
Kindly supply the reported apparent KD of MS2 coat protein values for the records listed here.
// return numeric value only (unit: nM, not printed)

Recorded apparent KD of MS2 coat protein of AAUAAUGCAGGAUAUACAUGAGGAUCACCCAUGUGAAUAAAAUAAAUAAAAUGAUAAAGUAGAAGGGCAAAUAA [JMF's solution 1] (puzzle: Exclusion 3) , please.
28.8

Try GCGUCGAGUGUGAGGAUAUGCUGGUCCUUGGAUCAGCAGAAGGCACAUGAGGAUCACCCAUGUGAAAACGAUGC [Mat - Exclusion 4 - JL Mod - D68] (puzzle: Brourd's mod of Exclusion 4) next.
18.8

Now consider AAUAAUAAGGAGGAUAUCGUAUCGGAAACGAUACGAGAAGGUCUAACAUGAGGAUCACCCAUGUUCCUCAAUAA [Fiskers Ex 6 - 1] (puzzle: Exclusion 6) .
33.6

Also AGUAACCGUCACGAAAGUGAUGGUUACACAGGCAAAUGUACAUGAGGAUCACCCAUGUCCUCAAUUGCUCGUCUUAU [Sensor 3 - 53] (puzzle: Sensor v3, turn-off variant 2) , if possible.
181

And then ACUAGAUGAGGAUAUGCAUAUUUUCGUGUUCUUCUAGGUUAACAUGAGGAUCACCCAUGUAGAAGGCGUCUAUC [Exclusion 2 - 25] (puzzle: Exclusion 2) , what is it?
21.6

----------
Test system: MS2 coat protein
method_description: apparent KD of MS2 coat protein; designed switch direction (-1 OFF switch, 1 ON switch): -1; higher = weaker reporter binding
condition_set: input ligand: FMN 200 uM
measurement_label: apparent KD of MS2 coat protein
Please state the number and follow it with the unit.

Observed apparent KD of MS2 coat protein on MS2 coat protein for GCUUGUAGAGGAUAUACGAGGGCCCGAGCGGCGAGAGCCGCACAUGAGGAUCACCCAUGUAGAAGGCUACUAUU [JL-ex2-4.19 ViennaUCT mod] (Eterna round: R97, puzzle: Exclusion 2) , please.
358 nM

Continue with UUCUGGACAGGAUAUGUACUUGAGCACUUGAGGAUCACCCAAGUCCUCAAGUACUCAGGCACAGAAGGGUUAAUUU [jl-ex5.4.65 ViennaUCT mod] (Eterna round: R97, puzzle: Exclusion 5)
110 nM

Next sequence up: GUUAUGCAGCAGGAUAUCGAUCCGCGGUAUGAUCGAGAAGGGCUGACAUGAGGAUCACCCAUGUGCGUCCUAGG [jl-ex6-4.46 ViennaUCT mod] (Eterna round: R97, puzzle: Exclusion 6)
170 nM

Moving on to the next sequence: GUCGUACAUGAGGAUCACCCAUGUGAGGAUAUAGGUAGCAACCAGAAAUGGUUGCUACCUAGAAGGCGCAUGAU [Malcxlusion 10 - Jieux - Exclusion 1] (Eterna round: R97, puzzle: Exclusion 1)
529 nM

Subsequent entry: GCACAGGCAGGAUAUACAUGAGGAUCACCCAUGUGAUCCCUUAAGUACAAAAGUACUAGUAGAAGGGCCUGUGC [Omei Ex3 Model Bachelor's Dilema v47] (Eterna round: R97, puzzle: Exclusion 3)
646 nM

----------
Tested on: MS2 coat protein
method_description: apparent KD of MS2 coat protein; designed switch direction (-1 OFF switch, 1 ON switch): 1; higher = weaker reporter binding
condition_set: input ligand: none
measurement_label: apparent KD of MS2 coat protein
Your answer should be a number followed by the unit of measure.

Could you tell me which apparent KD of MS2 coat protein is on file for AAAAUCUACGAAAGUAGAACAAGCUUAAGACAUGAGGAUCACCCAUGUCAUGUCUUAAAACAUGAGGAAACUCAUGA [hsa-mir-208a sensor: 17] (Eterna round: R96, puzzle: Sensor for hsa-mir-208a) ?
252 nM

Moving on to the next sequence: GGUGGGUUGCUGCCGGCACAUGAGGAUCACCCAUGUUUUGGGAAGGAUAUGGUCCCUCUUUGGUGCCAGAAGGUCCCGUUGGUC [salish99_SSNG3_r04_715] (Eterna round: R96, puzzle: Same State NG 3)
165 nM

Check GGAUGAUUGACAGGAUAUCAUUUGUAAAUUGGUUGAGAAGGGUCGAUUACUUACACGACCUGUUACAUGAGGAUCACCCAUGUU [SameState NG1 #3] (Eterna round: R96, puzzle: Same State NG 1) too.
31 nM

Now consider CUGACGUGAUCAGGAUAUUGUAAGACAAUGUUGCAAGAAGGGAUUAAUGAGCCCGAACAGACAUGAGGAUCACCCAUGUGUCAG [Eternabot solution 41] (Eterna round: R96, puzzle: Same State NG 1) and answer again.
67.6 nM

Next up: GCUACCAUUGAAGCCAACAUGAGGAUCACCCAUGUAUGUUGGUAGGAUAUCGAUUGCUUUGCGAUCGAGAAGGGCUAAGGUAGC [JL SSNG3 1.28] (Eterna round: R96, puzzle: Same State NG 3)
45.1 nM

Thanks! And AUAAAAGAAAGAAACACAUGAGGAUCACCCAUGUAACGACUACAGGAUAUGCUGCACAGUCCAAAGCAGAAGGGUGGUCAAAAC [Qulaesed] (Eterna round: R96, puzzle: Same State NG 3) ?
102 nM

Also, GCUAGAAUAAAUGCCUACAUGAGGAUCACCCAUGUAUGUAGGCAGGAUAUCGUUUGCAAAGCAAACGAGAAGGGCCUUACUAGC [Mat - Same State NG 3 - JL Mod - D29] (Eterna round: R96, puzzle: Same State NG 3) please.
55.7 nM

Likewise for UUAUUAAUUACAUGAGGAUCACCCAUGUUUUUUUGUCAGAGACAGGAUAUAGAAGUCUCGUUUUACUAGAAGGGUCAUUAUAUG [JR_SSNG3_Sub014] (Eterna round: R96, puzzle: Same State NG 3) ?
29.7 nM

Okay, and AAGUAGCGAGAGCUACACAAAAAGUUUGUACAUGAGGAUCACCCAUGUUGUACAAGCUUUUUGCUCGUCUUAAAAAA [Mat - Sensor - JL mod - D14] (Eterna round: R96, puzzle: Sensor for hsa-mir-208a) ?
84.1 nM

// repeat for GGUGCCAAUAAAGCCUACAUGAGGAUCACCCAUGUAUGUAGGCAGGAUAUCGUUUGCAAAGCAAACGAGAAGGGCCGAGGCACC [Mat - Same State NG 3 - JL Mod - D55] (Eterna round: R96, puzzle: Same State NG 3) and report
39.6 nM

Could you do the same for AUGAUUAAUGCAGGAUAUGAUUAACAUGAGGAUCACCCAUGUGGUGUUGUGAGUAAGGAGAGUGAUCAGAAGGGCAUUUUUUUU [JMF's solution 34] (Eterna round: R96, puzzle: Same State NG 2) , please?
701 nM

Similarly, GCGGAACCUAACAUGAGGAUCACCCAUGUUCCGGAAACGGCACAGGAUAUCUGUCCGAAAAGGUCAGAGAAGGGUGAAAACCGC [Fiskers NG3ss - 95] (Eterna round: R96, puzzle: Same State NG 3) ?
390 nM

Okay, and GCCGCGUUUCGCGCCUACAUGAGGAUCACCCAUGUUUGUAGGCAGGAUAUCGCUUGCUUUGCGGGCGAGAAGGGCUGUUGUGGC [salish99_SSNG3_R04_018] (Eterna round: R96, puzzle: Same State NG 3) ?
51.6 nM

Then what about the sequence GGACGUCAAUCUCCUACUUAAACAUGAGGAUCACCCAUGUCACAGGAUAUGAGUCCGAUUAGGACUCAGAAGGGUGAGACGUCC [Fiskers NG3ss - 50] (Eterna round: R96, puzzle: Same State NG 3) ?
16 nM

What do we get for CCUGACAUGAGGAUCACCCAUGUAGGGAAACAAUGACAUAUGGAGGAUAUACACCCGAAAGGCGCGUAGAAGGUCACAUGUCCA [Eternabot solution 5] (Eterna round: R96, puzzle: Same State NG 3) ?
13 nM

Param item: GGUGGGUUGCUGCCGGCACAUGAGGAUCACCCAUGUUUUGGGAAGGAUAUGGUACCUAUUUGGUACCAGAAGGUCCCGUUGGUG [salish99_SSNG3_r04_709] (Eterna round: R96, puzzle: Same State NG 3)
898 nM

Record: AUAGUUUCCGAAGGAUAUGAUGAGGAUCACCCAUCAGAAGGUUGGCUAUUGGGCUGACAUGAGGAUCACCCAUGUUUCGGUGUU (Eterna round: R96, puzzle: Same State NG 1)
41.4 nM
